experimental.system: human GLP-1 receptor (human, UniProt P43220 24-463)
protocol.details: cell-based or functional assay
*1 amine or outer side, *2 acyl side, *3 side chain or, on linkers, in order; H or OH if unused. Where no end group is shown, it is not given here. Side-chain parts run from the residue outwards. [ ]: non-standard residue; d: D form. The star is where a group is joined. C18 diacid = O=C(O)CCCCCCCCCCCCCCCCC(=O)*; γGlu = O=C(O)[C@H](CCC(=O)[*:2])N[*:1]; C14 diacid = O=C(O)CCCCCCCCCCCCC(=O)*; Desaminohistidyl = O=C(CCc1c[nH]cn1)*; AEEA = NCCOCCOCC(=O)O; Aib = CC(C)(N)C(=O)O
measured.endpoint: EC50 GLP-1R [pM], CRE luciferase reporter gene assay (pM)
Answers are plain numbers, in pM.

{"binder": "XXHGTFTSDYSKYLEGRAAREFIAWLLKK (Imp (desamino-His) at 7; Acb at 8; Lys35 N-epsilon acylated with 17-carboxyheptadecanoyl-γGlu-γGlu-Ado-γGlu-Ado-γGlu-Ado-γGlu-; C-terminal amide (GLP-1(7-37) numbering))", "measure.unit": "pM", "quantitative.result": 16}
{"binder": "[Desaminohistidyl][Aib]HGTFTSDVSKYLEEQAAREFIAWLLK([Ado-Ado-γGlu-γGlu-C14 diacid])T-NH2", "measure.unit": "pM", "quantitative.result": 12}
{"binder": "XXHGTFTSDYSKYLEEQAAREFIAWLLKK (Imp (desamino-His) at 7; Acb at 8; Lys35 N-epsilon acylated with 17-carboxyheptadecanoyl-γGlu-γGlu-Ado-γGlu-Ado-γGlu-Ado-γGlu-; C-terminal amide (GLP-1(7-37) numbering))", "measure.unit": "pM", "quantitative.result": 3}
{"binder": "[Desaminohistidyl]AHGTFTSDVSRYLEEQAARK([AEEA-AEEA-γGlu-γGlu-γGlu-C18 diacid])FIAWLLR", "measure.unit": "pM", "quantitative.result": 8}

Proceed to the following item.
What measured EC50 GLP-1R [pM], CRE luciferase reporter gene assay goes with [Desaminohistidyl][Aib]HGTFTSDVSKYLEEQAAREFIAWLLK([Ado-Ado-γGlu-γGlu-C18 diacid])T-NH2 ?
5.2

Hello, the source for this data is patent US20160102129A1, in case you need it.
